Recorded EC50, one value per entry.
# TARGET ENTITY: Aβ1-42 (Homo sapiens)
# Construct: dissolving Aβ1-42 or Tau-RD3 (Tau repeat domain 3) monomers in DMSO
# ASSAY METHOD TEXT: Amyloid-beta disaggregation test by Thioflavin-T analysis
# Type: biochemical
# CONDITION LABEL: Aβ1-42 50 µM aggregated 24 hours, then compound 0 - 500 µM for 48 hours at 37 °C; concentration disaggregating 50 % of aggregates vs control; read-out: EC50 (µM) Aβ
MEASURE: EC50

[[record]]
compound = "COc1ccc2c(c1)C(=O)C(c1cnccc1C)=C2c1scnc1C [Compound 22]"
target_entity = "Aβ1-42 (Homo sapiens)"
measure = "EC50"
experimental_result = "> 250 µM"

[[record]]
compound = "O=C1C(c2cncs2)=C(c2cncs2)c2ccc(O)cc21 [Compound 83-6]"
target_entity = "Aβ1-42 (Homo sapiens)"
measure = "EC50"
experimental_result = "> 250 µM"

[[record]]
compound = "O=C1C(c2ccccc2)=C(c2ccccc2)c2ccccc21 [Compound 1, 2,3-diphenylinden-1-one]"
target_entity = "Aβ1-42 (Homo sapiens)"
measure = "EC50"
experimental_result = "< 20 µM"

[[record]]
compound = "COCCNc1ccc2c(c1)C(=O)C(c1cccnc1)=C2c1scnc1C [Compound 54]"
target_entity = "Aβ1-42 (Homo sapiens)"
measure = "EC50"
experimental_result = "> 250 µM"

[[record]]
compound = "COc1ccc2c(c1)C(=O)C(c1cncs1)=C2c1cncs1 [Compound 83-5]"
target_entity = "Aβ1-42 (Homo sapiens)"
measure = "EC50"
experimental_result = "20 to 100 µM"

[[record]]
compound = "Cc1ncsc1C1=C(c2cccnc2)C(=O)c2cc(NCCO)ccc21 [Compound 53]"
target_entity = "Aβ1-42 (Homo sapiens)"
measure = "EC50"
experimental_result = "> 250 µM"

[[record]]
compound = "Cc1ncsc1C1=C(c2scnc2C)c2ccc(N3CCN(CCO)CC3)cc2C1=O [Compound 81]"
target_entity = "Aβ1-42 (Homo sapiens)"
measure = "EC50"
experimental_result = "20 to 100 µM"

[[record]]
compound = "COc1cc(OCCCc2ccccc2)cc2c1C(c1scnc1C)=C(c1cccnc1)C2=O [Compound 47]"
target_entity = "Aβ1-42 (Homo sapiens)"
measure = "EC50"
experimental_result = "< 20 µM"

[[record]]
compound = "Cc1ncsc1C1=C(c2ccncc2)C(=O)c2cc(OCCCc3ccccc3)ccc21 [Compound 39]"
target_entity = "Aβ1-42 (Homo sapiens)"
measure = "EC50"
experimental_result = "< 20 µM"


----------
# TARGET ENTITY: Aβ1-42 (Homo sapiens, UniProt P05067)
# Construct: dissolving Aβ1-42 or Tau-RD3 (Tau repeat domain 3) monomers in DMSO
# Sequence (P05067 672-713 limits assumed): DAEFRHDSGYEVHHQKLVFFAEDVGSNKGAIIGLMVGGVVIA
# ASSAY METHOD TEXT: Amyloid-beta disaggregation test by Thioflavin-T analysis
# Format: biochemical
# CONDITION LABEL: Aβ1-42 50 µM aggregated 24 hours, then compound 0 - 500 µM for 48 hours at 37 °C; concentration disaggregating 50 % of aggregates vs control; read-out: EC50 (µM) Aβ
MEASURE: EC50

[[record]]
compound = "Cc1ccccc1C1=C(c2ccccc2C(=O)O)C(=O)c2ccccc21 [Compound 99-8]"
experimental_result = "> 250 µM"

[[record]]
compound = "CNC(=O)c1ccccc1C1=C(c2ccccc2C)c2ccccc2C1=O [Compound 99]"
experimental_result = "> 250 µM"

[[record]]
compound = "Cn1cc(C2=C(c3cccnc3)C(=O)c3cc(O)ccc32)cn1 [Compound 42-7]"
experimental_result = "> 250 µM"

[[record]]
compound = "CN1CCN(c2ccc3c(c2)C(=O)C(c2ccccc2)=C3c2ccccc2)CC1 [Compound 13]"
experimental_result = "< 20 µM"

[[record]]
compound = "Cc1cc(N2CCN(C)CC2)cc2c1C(c1ccccc1)=C(c1ccccc1)C2=O [Compound 71]"
experimental_result = "20 to 100 µM"

[[record]]
compound = "COc1ccccc1C1=C(c2cccnc2)C(=O)c2cc(OCCCc3ccccc3)ccc21 [Compound 44]"
experimental_result = "< 20 µM"

[[record]]
compound = "Cc1scnc1C1=C(c2cccnc2)C(=O)c2cc(O)ccc21 [Compound 23-10]"
experimental_result = "> 250 µM"

[[record]]
compound = "Cc1ncsc1C1=C(c2cccnc2)C(=O)c2cc(NC3CCN(C)CC3)ccc21 [Compound 51]"
experimental_result = "< 20 µM"

[[record]]
compound = "O=C1C(c2cccc(N3CCOCC3)c2)=C(c2ccccc2)c2ccc(Cl)cc21 [Compound 73-7]"
experimental_result = "< 20 µM"

[[record]]
compound = "Cc1ncsc1C1=C(c2scnc2C)c2ccc(N3CCN(C)CC3)cc2C1=O [Compound 79]"
experimental_result = "20 to 100 µM"

[[record]]
compound = "COc1ccc2c(c1)C(=O)C(c1ccccc1)=C2c1ccccc1 [Compound 2, 6-methoxy-2,3-diphenyl-1H-inden-1-one]"
experimental_result = "< 20 µM"

[[record]]
compound = "Cc1ncsc1C1=C(c2cccnc2)C(=O)c2cc(Oc3ccccc3)ccc21 [Compound 66]"
experimental_result = "< 20 µM"

[[record]]
compound = "O=C1C(c2ccccc2)=C(c2ccc(CN3CCOCC3)cc2)c2ccccc21 [Compound 16]"
experimental_result = "20 to 100 µM"

[[record]]
compound = "Cc1ncsc1C1=C(c2cccnc2)C(=O)c2cc(N)ccc21 [Compound 59]"
experimental_result = "20 to 100 µM"

[[record]]
compound = "CN1CCN(c2ccc3c(c2)C(=O)C(c2cccc(N4CCOCC4)c2)=C3c2cccc(N3CCOCC3)c2)CC1 [Compound 80]"
experimental_result = "20 to 100 µM"

[[record]]
compound = "CN(C)c1ccc2c(c1)C(=O)C(c1ccccc1)=C2c1ccccc1 [Compound 69]"
experimental_result = "< 20 µM"

[[record]]
compound = "O=C1C(c2cncs2)=C(c2cncs2)c2ccc(OCCCc3ccccc3)cc21 [Compound 83]"
experimental_result = "< 20 µM"


----------
# TARGET ENTITY: Tau-RD3 (Tau repeat domain 3) (Homo sapiens)
# ASSAY METHOD TEXT: Tau disaggregation test by Thioflavin-T analysis
# Assay type: biochemical
# CONDITION LABEL: Tau-RD3 35 µM aggregated 24 hours, then compound 0 - 500 µM for 48 hours at 37 °C; concentration disaggregating 50 % of aggregates vs control; read-out: EC50 (µM) Tau
Recorded EC50, one value per entry.
MEASURE: EC50

[[record]]
molecule_smiles = "Cc1ncsc1C1=C(c2cccnc2)C(=O)c2cc(Oc3ccccc3)ccc21"
measure = "EC50"
experimental_result = "< 20 µM"

[[record]]
molecule_smiles = "Cc1ncsc1C1=C(c2cnn(C3CCN(C)CC3)c2)C(=O)c2cc(OCCCc3ccccc3)ccc21"
measure = "EC50"
experimental_result = "< 20 µM"

[[record]]
molecule_smiles = "Cc1ncsc1C1=C(c2cccc(CN3CCOCC3)c2)C(=O)c2ccccc21"
measure = "EC50"
experimental_result = "100 to 250 µM"

[[record]]
molecule_smiles = "COc1cccc(OC)c1C1=C(c2cccnc2)C(=O)c2cc(O)ccc21"
measure = "EC50"
experimental_result = "> 250 µM"

[[record]]
molecule_smiles = "COc1ccccc1C1=C(c2cccnc2)C(=O)c2cc(OCCCc3ccccc3)ccc21"
measure = "EC50"
experimental_result = "> 250 µM"

[[record]]
molecule_smiles = "Cc1ncsc1C1=C(c2c[nH]nn2)C(=O)c2cc(OCCCc3ccccc3)ccc21"
measure = "EC50"
experimental_result = "< 20 µM"

[[record]]
molecule_smiles = "Cc1ccccc1C1=C(c2c(C)cccc2C)c2ccc(O)cc2C1=O"
measure = "EC50"
experimental_result = "< 20 µM"

[[record]]
molecule_smiles = "O=C1C(C2CCCCC2)=C(c2ccccc2)c2ccccc21"
measure = "EC50"
experimental_result = "> 250 µM"


----------
# TARGET ENTITY: Tau-RD3 (Tau repeat domain 3) (Homo sapiens, UniProt P10636)
# Sequence (P10636 623-653 limits assumed): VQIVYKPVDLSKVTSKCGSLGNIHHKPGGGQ
# ASSAY METHOD TEXT: Tau disaggregation test by Thioflavin-T analysis
# Type: biochemical
# CONDITION LABEL: Tau-RD3 35 µM aggregated 24 hours, then compound 0 - 500 µM for 48 hours at 37 °C; concentration disaggregating 50 % of aggregates vs control; read-out: EC50 (µM) Tau
MEASURE: EC50

[[record]]
molecule = "O=C1C(c2ccccc2)=C(c2cccc(N3CCOCC3)c2)c2ccccc21"
experimental_result = "> 250 µM"

[[record]]
molecule = "COCCOc1ccc2c(c1)C(=O)C(c1cccnc1)=C2c1scnc1C"
experimental_result = "20 to 100 µM"

[[record]]
molecule = "COc1ccc2c(c1)C(=O)C(c1cccnc1)=C2c1cnn(C)c1"
experimental_result = "20 to 100 µM"

[[record]]
molecule = "CN1CCN(c2ccc3c(c2)C(=O)C(c2cccc(N4CCOCC4)c2)=C3c2ccccc2)CC1"
experimental_result = "100 to 250 µM"

[[record]]
molecule = "Cc1ncsc1C1=C(c2cccnc2)C(=O)c2cc(NC3CCCN(c4ccccc4)C3)ccc21 (stereo not drawn)"
experimental_result = "> 250 µM"

[[record]]
molecule = "O=C1C(c2cccnc2)=C(c2ccccc2)c2ccccc21"
experimental_result = "> 250 µM"

[[record]]
molecule = "Cc1ncsc1C1=C(c2scnc2C)c2ccc(N3CCN(CCO)CC3)cc2C1=O"
experimental_result = "20 to 100 µM"

[[record]]
molecule = "Cc1scnc1C1=C(c2cccnc2)C(=O)c2cc(O)ccc21"
experimental_result = "20 to 100 µM"

[[record]]
molecule = "O=C1C(c2ccccc2)=C(C2CCCCC2)c2ccccc21"
experimental_result = "> 250 µM"

[[record]]
molecule = "Cc1ncsc1C1=C(c2cccc(CN3CCN(C)CC3)c2)c2ccccc2C1=O"
experimental_result = "20 to 100 µM"

[[record]]
molecule = "O=C1C(c2ccccc2)=C(c2ccccc2)c2ccc(N3CCN(CCO)CC3)cc21"
experimental_result = "< 20 µM"

[[record]]
molecule = "Cc1ncsc1C1=C(c2cnn(C)c2)C(=O)c2cc(OCCCc3ccccc3)ccc21"
experimental_result = "< 20 µM"

[[record]]
molecule = "Cc1ncsc1C1=C(c2ccn(C)n2)C(=O)c2cc(OCCCc3ccccc3)ccc21"
experimental_result = "> 250 µM"

[[record]]
molecule = "Cc1ncsc1C1=C(c2cccnc2)C(=O)c2cc(SCCCc3ccccc3)ccc21"
experimental_result = "< 20 µM"

[[record]]
molecule = "Cn1cc(C2=C(c3cccnc3)C(=O)c3cc(OCCCc4ccccc4)ccc32)cn1"
experimental_result = "> 250 µM"

[[record]]
molecule = "Cc1ncsc1C1=C(c2ccc(N3CCN(C)CC3)cc2)C(=O)c2ccccc21"
experimental_result = "> 250 µM"

[[record]]
molecule = "O=C1C(c2ccccc2)=C(c2ccccc2)c2ncccc21"
experimental_result = "> 250 µM"

[[record]]
molecule = "Cc1ncsc1C1=C(c2ccccn2)C(=O)c2cc(O)ccc21"
experimental_result = "> 250 µM"

[[record]]
molecule = "CC(=O)Oc1ccc2c(c1)C(=O)C(Br)=C2c1ccn(C)n1"
experimental_result = "< 20 µM"

[[record]]
molecule = "Cc1ncsc1C1=C(c2cccnc2)C(=O)c2cc(NC(=O)C3CCOCC3)ccc21"
experimental_result = "> 250 µM"

[[record]]
molecule = "O=C1C(c2cccc(N3CCOCC3)c2)=C(c2ccccc2)c2ccc(Cl)cc21"
experimental_result = "> 250 µM"

[[record]]
molecule = "COc1ccc2c(c1)C(=O)C(c1cnccc1C)=C2c1scnc1C"
experimental_result = "20 to 100 µM"

[[record]]
molecule = "Cc1ncsc1C1=C(c2cccnc2)C(=O)c2cc(N(C)CCCc3ccccc3)ccc21 [Compound 38]"
experimental_result = "> 250 µM"

[[record]]
molecule = "CN1CCN(c2cccc(C3=C(c4ccccc4)C(=O)c4ccccc43)c2)CC1"
experimental_result = "> 250 µM"

[[record]]
molecule = "Cc1ncsc1C1=C(c2cccnc2)C(=O)c2cc(N3CCN(C)CC3)ccc21"
experimental_result = "100 to 250 µM"

[[record]]
molecule = "Cc1ncsc1C1=C(c2cn[nH]c2)C(=O)c2cc(OCCCc3ccccc3)ccc21"
experimental_result = "< 20 µM"

[[record]]
molecule = "Cc1ncsc1C1=C(c2cccnc2)C(=O)c2cc(N)ccc21"
experimental_result = "20 to 100 µM"

[[record]]
molecule = "Cc1ncsc1C1=C(c2ccc(CN3CCOCC3)cc2)C(=O)c2ccccc21"
experimental_result = "20 to 100 µM"

[[record]]
molecule = "Cc1ncsc1C1=C(c2cccnc2)C(=O)c2cc(NCCOc3ccccc3)ccc21"
experimental_result = "> 250 µM"

[[record]]
molecule = "Cc1ccccc1C1=C(c2ccccc2C)c2ccc(O)cc2C1=O [Compound 82, 6-hydroxy-2,3-di-o-tolyl-1H-inden-1-one]"
experimental_result = "20 to 100 µM"

[[record]]
molecule = "Cc1ncsc1C1=C(c2ccc(N3CCN(C)CC3)cc2)C(=O)c2cc(N3CCN(C)CC3)ccc21"
experimental_result = "< 20 µM"

[[record]]
molecule = "O=C1C(c2ccccc2)=C(c2ccccc2)c2ccc(Cl)cc21"
experimental_result = "> 250 µM"

[[record]]
molecule = "Cc1ncsc1C1=C(c2cnccn2)C(=O)c2cc(OCCCc3ccccc3)ccc21"
experimental_result = "> 250 µM"

